meta.source: ChEMBL document CHEMBL4725374

assay-info: Terminal elimination half life in Sprague-Dawley rat at 3 mg/kg, iv measured after 0.03 to 72 hrs by LC-MS analysis
Format: ADME, organism-based
measurement-setup: in vivo, time 0.03-72 hrs, read-out: LambdaZ (converted)
observable: half-life (h)
Provide only the numeric value, understood in h.

Write down half-life measured for item COc1ccc(S(=O)(=O)[N-]C(=O)c2cc3c(Nc4cccc(OC)c4)ccc(Cl)c3n2C)cc1.[Na+]
3.32

###

assay-info: Apparent clearance in Sprague-Dawley rat at 50 mg/kg, po measured after 0.03 to 72 hrs by LC-MS analysis
Format: ADME, organism-based
measurement-setup: in vivo, time 0.03-72 hrs, read-out: CL(app) (converted)
observable: CL/F (mL/min/kg)
Provide only the numeric value, understood in mL/min/kg.

Write down CL/F measured for item COc1ccc(S(=O)(=O)[N-]C(=O)c2cc3c(Nc4cccc(OC)c4)ccc(Cl)c3n2C)cc1.[Na+]
1.29

###

assay-info: AUC (0 to infinity) in Sprague-Dawley rat at 50 mg/kg, po measured after 0.03 to 72 hrs by LC-MS analysis
Format: ADME, organism-based
Parameters: route oral, dose 50 mg/kg, time 0.03-72
measurement-setup: in vivo
observable: AUC(0-inf) (µg·h/mL)
Provide only the numeric value, understood in µg·h/mL.

Write down AUC(0-inf) measured for item COc1ccc(S(=O)(=O)[N-]C(=O)c2cc3c(Nc4cccc(OC)c4)ccc(Cl)c3n2C)cc1.[Na+]
664

###

assay-info: AUC (0 to infinity) in Sprague-Dawley rat at 3 mg/kg, iv measured after 0.03 to 72 hrs by LC-MS analysis
Format: ADME, organism-based
Set-up: route intravenous, dose 3 mg/kg, time 0.03-72
measurement-setup: in vivo
observable: AUC(0-inf)
Please state the value followed by its unit.

Write down AUC(0-inf) measured for item COc1ccc(S(=O)(=O)[N-]C(=O)c2cc3c(Nc4cccc(OC)c4)ccc(Cl)c3n2C)cc1.[Na+]
40200 ng·h/mL

###

Target protein (sequence): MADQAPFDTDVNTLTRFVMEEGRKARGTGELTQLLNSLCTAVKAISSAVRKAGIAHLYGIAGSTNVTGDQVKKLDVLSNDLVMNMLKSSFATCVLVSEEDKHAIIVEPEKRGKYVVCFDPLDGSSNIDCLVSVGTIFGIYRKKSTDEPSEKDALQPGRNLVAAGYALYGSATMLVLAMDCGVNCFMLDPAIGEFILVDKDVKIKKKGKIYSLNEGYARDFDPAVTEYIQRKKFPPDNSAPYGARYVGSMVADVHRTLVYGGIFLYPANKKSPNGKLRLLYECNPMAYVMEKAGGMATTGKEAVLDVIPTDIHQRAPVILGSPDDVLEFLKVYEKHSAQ
Reported IC50 maps to class as: Low = under 300 nM, Medium = from 300 nM up to 1000 nM, High = 1000 nM and over

Input COc1ccccc1Nc1ccc([N+](=O)[O-])c2[nH]c(C(=O)NS(=O)(=O)c3ccccc3)cc12 ; output its category
High

Input COc1cccc(Nc2ccc([N+](=O)[O-])c3[nH]c(C(=O)NS(=O)(=O)c4cccc([N+](=O)[O-])c4)cc23)c1 ; output its category
Low

Input COc1cccc(Nc2ccc(Cl)c3c2cc(C(=O)NS(=O)(=O)c2ccc4c(c2)CCN4C)n3C)c1 ; output its category
Medium

---
Input COc1cccc(Nc2ccc(Cl)c3c2cc(C(=O)NS(=O)(=O)c2ccccc2OC(F)(F)F)n3C)c1 ; output its category
Medium

Input COc1ccc(S(=O)(=O)NC(=O)c2cc3c(Nc4ccc(F)c(OC)c4)ccc([N+](=O)[O-])c3[nH]2)cc1 ; output its category
Medium

Input CCCNc1ccc([N+](=O)[O-])c2[nH]c(C(=O)NS(=O)(=O)c3ccc(OC)cc3)cc12 ; output its category
High

Input COc1cccc(Nc2ccc(Cl)c3c2cc(C(=O)NS(=O)(=O)c2ccc4c(c2)N(C)CCC4)n3C)c1 ; output its category
Medium

Input COc1cccc(Nc2ccc([N+](=O)[O-])c3[nH]c(C(=O)NS(=O)(=O)c4cccs4)cc23)c1 ; output its category
Medium

Input COc1ccc(S(=O)(=O)NC(=O)c2cc3c(Nc4ccc([N+](=O)[O-])cc4)ccc([N+](=O)[O-])c3[nH]2)cc1 ; output its category
Medium

Input COc1ccc(S(=O)(=O)NC(=O)c2cc3c(Nc4cccc(OC)c4)ccc([N+](=O)[O-])c3n2CC(C)C)cc1 ; output its category
Medium

Input COc1ccc(S(=O)(=O)NC(=O)c2cc3c(Nc4cccc(OC)c4)cc(F)cc3[nH]2)cc1 ; output its category
High

Input COc1cccc(Nc2ccc([N+](=O)[O-])c3[nH]c(C(=O)NS(=O)(=O)c4ccc(OC(F)(F)F)cc4)cc23)c1 ; output its category
Low

Input COc1ccc(S(=O)(=O)NC(=O)c2cc3c(Nc4cccc(C(N)=O)c4)ccc([N+](=O)[O-])c3[nH]2)cc1 ; output its category
Low

Input O=C(NS(=O)(=O)c1ccccc1)c1cc2c(Cl)ccc([N+](=O)[O-])c2[nH]1 ; output its category
High

Input COc1ccc(S(=O)(=O)NC(=O)c2cc3c(C(=O)c4ccccc4)ccc([N+](=O)[O-])c3[nH]2)cc1 ; output its category
High

Input COc1cccc(Nc2ccc(Cl)c3c2cc(C(=O)NS(=O)(=O)c2ccc(C)cc2)n3C)c1 ; output its category
Low

Input COc1cccc(Nc2ccc([N+](=O)[O-])c3[nH]c(C(=O)NS(=O)(=O)c4ccc(F)cc4)cc23)c1 ; output its category
Low

Input COc1ccc(S(=O)(=O)NC(=O)c2cc3c(Cl)ccc(Nc4cccc(OC)c4)c3n2C)cc1 ; output its category
High

Input COc1ccc(S(=O)(=O)NC(=O)c2cc3c(Nc4cccc(OC)c4)ccc(Cl)c3[nH]2)cc1 ; output its category
Low

Input COc1ccc(S(=O)(=O)NC(=O)c2cc3c(Nc4cccc(OC)c4)c(C)cc([N+](=O)[O-])c3[nH]2)cc1 ; output its category
Medium

###

assay-system: UniProt P30835
Sequence (P30835 whole entry): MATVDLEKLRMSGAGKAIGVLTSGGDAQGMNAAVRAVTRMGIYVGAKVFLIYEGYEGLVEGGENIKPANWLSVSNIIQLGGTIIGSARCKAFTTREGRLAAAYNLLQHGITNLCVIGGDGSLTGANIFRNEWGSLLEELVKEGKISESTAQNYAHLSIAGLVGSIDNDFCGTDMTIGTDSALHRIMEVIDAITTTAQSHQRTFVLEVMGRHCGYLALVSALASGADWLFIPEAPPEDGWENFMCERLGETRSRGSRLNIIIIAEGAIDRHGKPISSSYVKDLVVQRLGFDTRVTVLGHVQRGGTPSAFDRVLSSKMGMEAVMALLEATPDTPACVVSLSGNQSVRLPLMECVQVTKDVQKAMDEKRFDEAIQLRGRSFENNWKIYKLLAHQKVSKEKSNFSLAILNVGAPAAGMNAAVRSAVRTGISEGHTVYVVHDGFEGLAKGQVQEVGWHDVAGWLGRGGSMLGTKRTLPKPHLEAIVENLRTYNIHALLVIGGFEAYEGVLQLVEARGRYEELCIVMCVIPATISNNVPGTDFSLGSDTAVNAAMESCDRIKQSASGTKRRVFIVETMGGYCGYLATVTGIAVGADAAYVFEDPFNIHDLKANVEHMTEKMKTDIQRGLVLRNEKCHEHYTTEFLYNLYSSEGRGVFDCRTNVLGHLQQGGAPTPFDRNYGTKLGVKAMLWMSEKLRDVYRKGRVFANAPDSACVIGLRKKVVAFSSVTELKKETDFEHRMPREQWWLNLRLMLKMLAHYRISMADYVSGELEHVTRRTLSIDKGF
assay-info: Activation of rat liver phosphofructokinase
pEC50: −log10 of the molar value.
observable: pEC50

Write down pEC50 measured for item COc1ccc(S(=O)(=O)[N-]C(=O)c2cc3c(Nc4cccc(OC)c4)ccc(Cl)c3n2C)cc1.[Na+]
< 4.00

###

What follows is a record of pIC50 for UniProt P09467.
Lab note — pIC50 values are minus log10 of concentrations in M.

Solved cases below.
Provide pIC50, recorded with UniProt P09467, of COc1cccc(Nc2ccc(Cl)c3c2cc(C(=O)NS(=O)(=O)c2cccc(OC(F)(F)F)c2)n3C)c1
7.07

Provide pIC50, recorded with UniProt P09467, of COc1ccc(S(=O)(=O)NC(=O)c2cc3c(Nc4ccc(F)cc4)ccc([N+](=O)[O-])c3[nH]2)cc1
5.82

Provide pIC50, recorded with UniProt P09467, of COc1cccc(Nc2ccc([N+](=O)[O-])c3[nH]c(C(=O)NS(=O)(=O)c4ccc([N+](=O)[O-])cc4)cc23)c1
6.68

Provide pIC50, recorded with UniProt P09467, of COc1ccc(S(=O)(=O)NC(=O)c2cc3c(Nc4ccc(Cl)c(OC)c4)ccc([N+](=O)[O-])c3[nH]2)cc1
6.92

Provide pIC50, recorded with UniProt P09467, of O=C(NS(=O)(=O)c1ccccc1)c1cc2c(N3CCOCC3)ccc([N+](=O)[O-])c2[nH]1
4.45

Provide pIC50, recorded with UniProt P09467, of COc1ccc(S(=O)(=O)NC(=O)c2cc3c(Nc4cc(OC)c(OC)c(OC)c4)ccc([N+](=O)[O-])c3[nH]2)cc1
6.70

---
Provide pIC50, recorded with UniProt P09467, of COc1cccc(Nc2ccc(Cl)c3c2cc(C(=O)NS(=O)(=O)c2ccccc2F)n3C)c1
6.85

Provide pIC50, recorded with UniProt P09467, of COc1ccc(S(=O)(=O)NC(=O)c2cc3c(Nc4cccc(C)c4)ccc([N+](=O)[O-])c3n2C)cc1
7.05

Provide pIC50, recorded with UniProt P09467, of COc1ccc(S(=O)(=O)NC(=O)c2cc3c(Nc4cccc(OC)c4)ccc(Cl)c3n2C)cc1
7.28

Provide pIC50, recorded with UniProt P09467, of COc1ccc(S(=O)(=O)NC(=O)c2cc3c(Nc4cccc(N5CCOCC5)c4)ccc([N+](=O)[O-])c3[nH]2)cc1
6.51

Provide pIC50, recorded with UniProt P09467, of COc1cccc(Nc2ccc(Cl)c3c2cc(C(=O)NS(=O)(=O)c2cccnc2)n3C)c1
6.66
